In this section we review reported IC50 values for a set of compounds.
# targetOrSystem: rat TRPV1 (Rattus norvegicus (Rat))
# Sequence (O35433 whole entry): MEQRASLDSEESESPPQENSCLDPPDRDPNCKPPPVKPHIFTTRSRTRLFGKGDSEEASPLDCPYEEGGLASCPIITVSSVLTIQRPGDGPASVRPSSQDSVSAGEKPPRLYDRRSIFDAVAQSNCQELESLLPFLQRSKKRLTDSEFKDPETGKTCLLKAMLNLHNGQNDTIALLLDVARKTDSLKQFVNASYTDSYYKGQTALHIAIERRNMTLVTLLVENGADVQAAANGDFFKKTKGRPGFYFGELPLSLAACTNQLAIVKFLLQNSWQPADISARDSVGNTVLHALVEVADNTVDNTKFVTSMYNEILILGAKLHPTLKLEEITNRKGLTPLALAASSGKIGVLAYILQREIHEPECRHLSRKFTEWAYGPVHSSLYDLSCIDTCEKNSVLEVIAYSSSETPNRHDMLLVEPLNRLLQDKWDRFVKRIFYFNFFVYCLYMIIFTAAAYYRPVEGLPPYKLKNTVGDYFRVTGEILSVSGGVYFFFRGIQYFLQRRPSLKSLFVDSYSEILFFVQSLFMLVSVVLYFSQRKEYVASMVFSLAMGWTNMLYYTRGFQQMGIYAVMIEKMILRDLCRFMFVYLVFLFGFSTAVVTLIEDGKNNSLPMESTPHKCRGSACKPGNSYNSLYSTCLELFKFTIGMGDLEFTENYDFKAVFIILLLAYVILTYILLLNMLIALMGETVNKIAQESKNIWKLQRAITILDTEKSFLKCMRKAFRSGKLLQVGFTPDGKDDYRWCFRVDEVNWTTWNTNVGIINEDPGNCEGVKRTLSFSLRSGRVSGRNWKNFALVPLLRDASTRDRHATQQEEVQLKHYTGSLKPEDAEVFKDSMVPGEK
# appliedConditions: read-out: Rat IC50; hydrochloride salt
Where a name gives a salt, the structure may show the parent alone.
reportedMetric: IC50 (nM)

1. FC(F)(F)c1ccc(Nc2nc(C3CC3)nc3c2CCN(c2ncccc2C(F)(F)F)CC3)cc1 [Example 5A, hydrochloride salt] : 190
2. CC(C)(C)c1ccc(Nc2ncnc3c2CCN(c2ncccc2C(F)(F)F)CC3)cc1 [Example 1A, hydrochloride salt] : 49
3. FC(F)(F)c1ccc(Nc2nc(N3CCCCC3)nc3c2CCN(c2ncccc2C(F)(F)F)CC3)cc1 [Example 39A, hydrochloride salt] : 23
